measured-on: T1, biotinylated CRH (human and mouse, not fully specified; biotinylated, position not stated)
T1 construct: also called Biotin-CRH; biotin-labeled CRH
T1 peptide: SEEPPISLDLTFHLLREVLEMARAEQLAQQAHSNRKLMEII
assay-text: Octet BLI, biotinylated CRH on SA sensor
readout: koff (s⁻¹)
Numeric answer only, unit s⁻¹ assumed.

Consider the binder PR005658 (antibody, human IgG1, kappa, V domains shown, PTM-removal variant of PR004290) VH: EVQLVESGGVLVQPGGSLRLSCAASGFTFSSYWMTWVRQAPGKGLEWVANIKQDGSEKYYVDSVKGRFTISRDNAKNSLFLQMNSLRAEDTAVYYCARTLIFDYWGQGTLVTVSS VL: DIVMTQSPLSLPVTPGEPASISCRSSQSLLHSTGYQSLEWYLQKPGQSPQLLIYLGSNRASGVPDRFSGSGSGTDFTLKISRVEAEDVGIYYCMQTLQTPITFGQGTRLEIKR and give its recorded koff.
9.11e-05
